Test: gradient 5% acetonitrile 3 min, to 50% in 2 min, to 85% in 15 min, held 3 min, 100 µL/min
Details: column: Zorbax Extend-C18 2.1 x 50 mm; eluents: water / acetonitrile, 0.1% formic acid
measurement-type: RP-LC retention time (s)

Would you please look over these solved cases?
compound | RP-LC retention time, s
CS(=O)(=O)N1CCC(C(=O)NCc2ccc(Cl)cc2)Oc2ccccc21 (stereo not given) | 1010
Cc1ccc(NC(=O)N2CCCC(C)(C(=O)NCc3ccccc3C)C2)cc1Cl (stereo not given) | 1080
Cc1ccc(C(=O)Nc2ccc3c(c2)Sc2ncccc2C(=O)N3C(C)C)cc1C | 997

1. CC(=O)Nc1ccc(-n2cnc(C(=O)N3CCC(C(N)=O)CC3)c2)nc1
2. O=C(NCc1cccnc1-c1ccc(F)cc1)c1cccs1
Query string: # query: argmin of RP-LC retention time over 1 and 2 Provide the label of your selected option as the answer.
Result string: 1
(1: 564 s, 2: 894 s)

---

Assay: gradient 5% acetonitrile 3 min, to 50% in 2 min, to 85% in 15 min, held 3 min, 100 µL/min
Details: column: Zorbax Extend-C18 2.1 x 50 mm; eluents: water / acetonitrile, 0.1% formic acid
measurement-type: RP-LC retention time (s)

compound | measurement-type | recorded-result
Cc1nnc(-c2ccc3ccn(CC(=O)Nc4ccc(F)cc4F)c3c2)o1 | RP-LC retention time | 801
Cc1ccc(CNC(=O)Cn2ccc3ccc(-c4nnc(C)o4)cc32)cc1 | RP-LC retention time | 798
O=S(=O)(c1ccccc1C(F)(F)F)N1CCC2(CCN(c3cccnc3)C2)C1 (centres undefined) | RP-LC retention time | 694
CCn1ccc2c(cc(C(=O)Nc3ccc(OC)c(Cl)c3)n2C)c1=O | RP-LC retention time | 1330
c1ccc(Nc2nc(-c3ccc4c(c3)OCO4)cs2)nc1 | RP-LC retention time | 849
CC1=C(c2ccc(C(C)C)cc2)S(=O)(=O)N=C1N1CCC(C(=O)NCC2CCCO2)CC1 (centres undefined) | RP-LC retention time | 820
CC1=C(C(=O)Nc2cc3cn[nH]c3cc2F)C(c2ccc(C(F)(F)F)cc2)CC(=O)N1 (centres undefined) | RP-LC retention time | 734
COCCc1noc(C2CN(S(=O)(=O)Cc3ccccc3F)C2)n1 | RP-LC retention time | 858
COC(=O)c1ccccc1NC(=O)N1CCCn2nc(-c3cccn3C)cc21 | RP-LC retention time | 958

---

Assay: gradient 5% acetonitrile 3 min, to 50% in 2 min, to 85% in 15 min, held 3 min, 100 µL/min
Settings: column: Zorbax Extend-C18 2.1 x 50 mm; eluents: water / acetonitrile, 0.1% formic acid
measurement-type: RP-LC retention time (s)

compound | measurement-type | unit-info | recorded-result
Cc1ccc(NS(=O)(=O)c2ccc(-c3c(C)noc3C)cc2)cc1Cl | RP-LC retention time | s | 1040
CCOC(=O)c1cnc2c(C)cc(C)cc2c1NCCCN(C)C | RP-LC retention time | s | 565
Nc1c2c(nc3c1CCC3)CCCC2 | RP-LC retention time | s | 624
O=C(Nc1cnc(N2CCCCCC2)nc1)C1CC1 | RP-LC retention time | s | 714

P. CCc1nc2cc(N3CCC(C(=O)NCc4cccc(F)c4)CC3)cnc2nc1CC
Q. Cc1nn(C(C)C(=O)Nc2cccc(Cl)c2)c(=O)c2c(-n3cccc3)n(-c3ccccc3)nc12 (stereo not given)
R. CCC(CO)Nc1ncc([N+](=O)[O-])c(N)n1 (stereo not given)
Query string: Rank items: key RP-LC retention time, increasing. A ranking is expressed here by listing the labels in the requested order.
Result string: R, P, Q

1. O=C(c1cnn2c(-c3ccc4c(c3)OCO4)ccnc12)N1CCN(c2ccc(F)cc2)CC1
2. CCN1CCN(C(=O)c2nc(N3CCSCC3)c3cnn(C)c3n2)CC1
Query string: # query: argmin of RP-LC retention time over 1 and 2 Provide the label of your selected option as the answer.
Result string: 2
(2: 604 s, 1: 890 s)

These entries and their values trace back to the METLIN SMRT retention time set (Domingo-Almenara et al. 2019).
